Hello, the source for this data is PubChem BioAssay, in case you need it.

- test_details: Plasmodium falciparum growth inhibition, primary screen, strain 3D7, DAPI fluorescence, 100 nL (AID 1184);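 further: parasites grown inside human red blood cells in medium with human serum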
- details: P. falciparum 3D7 growth, 3 d, higher = more signal
Output t for z-score not less than -0.5; output f otherwise.

molecule=COc1cccc(OC)c1C(=O)O[C@H]1[C@@H]2OC(=O)[C@H](Cc3cccc(Br)c3)C/C=C/C[C@@H](Cc3cccc(Br)c3)C(=O)O[C@H]2[C@@H](OC)O[C@@H]1CO label_class=f
molecule="C[C@H]1C2[C@H](Cc3ccccc3)NC(=O)[C@]23C(=O)NCC(=O)N2CCC[C@H]2C(=O)NC/C=C\\C/C=C/C3[C@@H]2O[C@]12C (some centres not stated)" label_class=t
molecule=COC(=O)[C@@]1(Cc2ccccc2CN=[N+]=[N-])COC(c2ccc(OCCCO)cc2)=N1 label_class=f
molecule=COCCOC(=O)N1C(=O)[C@@]2(c3cc(C#CC4=CCCCC4)ccc31)[C@H](c1ccc(OCCO)cc1)N1[C@H](c3ccccc3)[C@H](c3ccccc3)OC(=O)[C@H]1[C@@H]2C(=O)N1CCCCCCC1 label_class=f
molecule=COCC1=C([C@H](O)CCc2ccccc2)[C@H](CO)n2c(=O)n(-c3ccccc3)c(=O)n2C1 label_class=t
molecule="C=CCC(OC(C)=O)[C@@H]1[C@@H](N(Cc2cc3ccccc3o2)C(=O)Cc2ccc(OC)cc2)c2cc(OCCCO)ccc2N1C(=O)Cc1ccc2ccccc2c1 (some centres not stated)" label_class=f
molecule=CC(=O)NCCCC[C@@H]1NC(=O)[C@@H]2C[C@H](C(=O)NCCCCCC[N+](C)(C)C)[C@H](c3ccc(O)cc3)N2C1=O label_class=t

----------
Recorded measurements of composite z-score, one per entry
- assayed_target: E3 ubiquitin-protein ligase XIAP (Homo sapiens)
- test_details: XIAP binders, primary screen, biophysical, small-molecule microarray, fluorescence 635 nm (AID 1181);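 further: score merges 667 nm emission and signal to noise over triplicate slides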
- details: small-molecule microarray binding, higher = more signal
measure: composite z-score

compound=COCCOC(=O)N1C(=O)[C@@]2(c3cc(C#CCC(C(=O)OC)C(=O)OC)ccc31)[C@H](C(=O)N1CCc3cc(OC)c(OC)cc3C1)[C@H]1C(=O)O[C@H](c3ccccc3)[C@H](c3ccccc3)N1[C@@H]2c1ccc(O)cc1 test_result=-0.0034
compound="NC(=O)N1C(=O)C2C(C1=O)C1C=C(CCCO)C2C(c2ccc(CN3CCCC3)cc2)N1Cc1cccc(OC(F)(F)F)c1 (stereo not given)" test_result=0.101
compound=CCOC(=O)C[C@H]1[C@H](OC(=O)c2ccc(-c3ccccc3)cc2)[C@@H](NC(=O)CC(C)C)c2cc(OCCCO)ccc2N1C(=O)Cc1ccc(OC)cc1 test_result=-0.274
compound=CCCCC(=C=CC[C@@H](O)c1cccc(OCCO)c1)CCO test_result=-0.0853
compound="C=CCC(OC(C)=O)[C@@H]1[C@@H](N(Cc2ccc(-c3cccc(C(F)(F)F)c3)o2)C(=O)c2cccc3ccccc23)c2cc(OCCCO)ccc2N1C(=O)c1ccc2ccccc2n1 (stereo not given in full)" test_result=-0.227
compound=CCOC(=O)C[C@H]1[C@H](OC(=O)c2cc3ccccc3oc2=O)[C@@H](NC(=O)C2CCCCC2)c2cc(OCCCO)ccc2N1C(=O)Cc1ccc(OC)cc1 test_result=0.214
compound=COCCOC(=O)N1C(=O)[C@@]2(c3cc(C#CCCO)ccc31)[C@H](c1ccc(O)cc1)N1[C@H](c3ccccc3)[C@H](c3ccccc3)OC(=O)[C@H]1[C@@H]2C(=O)N1CCc2cc(OC)c(OC)cc2C1 test_result=-0.0272
compound="CCC(CC)C(O)C1C=CC2C(=O)N(C)C(=O)C2N1N1CCCCC1 (stereo not given)" test_result=0.167
compound=CC(C)CNC(=O)[C@@H]1c2ccccc2C(=O)N(Cc2ccccc2)[C@H]1c1ccc(CO)cc1 test_result=0.0785
compound=Cc1ccc(S[C@]2(C(=O)NC3CC3)CC(=O)N(Cc3cc(C(F)(F)F)cc(C(F)(F)F)c3)[C@@H]2c2ccc(CO)cc2I)cc1 test_result=0.723

----------
- assayed_target: Follistatin (Homo sapiens) (UniProt P19883)
- Sequence (P19883 whole entry, looked up): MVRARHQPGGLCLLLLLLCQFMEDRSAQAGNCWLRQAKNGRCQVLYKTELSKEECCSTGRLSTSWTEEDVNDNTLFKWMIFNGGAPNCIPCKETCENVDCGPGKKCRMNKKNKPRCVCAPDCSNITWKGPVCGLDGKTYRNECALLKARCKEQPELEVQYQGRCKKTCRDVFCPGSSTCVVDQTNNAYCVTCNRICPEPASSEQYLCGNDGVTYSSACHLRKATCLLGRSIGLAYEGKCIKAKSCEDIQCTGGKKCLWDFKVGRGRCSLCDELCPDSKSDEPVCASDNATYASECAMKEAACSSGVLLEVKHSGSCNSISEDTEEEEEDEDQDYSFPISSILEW
- test_details: follistatin binders on small-molecule microarrays, primary screen, biochemical, small-molecule microarray, 635/667 nm fluorescence (AID 1132)
- details: FST binding, 635 nm fluorescence, higher = more signal
measure: composite z-score

molecule=COC(=O)[C@@]1(Cc2ccc(OC)cc2)[C@@H]2[C@@H](CC(=O)[C@H]2CC(=O)C(=O)N2CCCC2)CN1C(=O)c1ccccc1 test_result=0.713
molecule=O=C1O[C@@H](c2ccccc2)[C@@H](c2ccccc2)N2[C@@H](c3ccc(OCCO)cc3)[C@]3(C(=O)Nc4ccc(C#CCCO)cc43)[C@@H](C(=O)Nc3nc4ccccc4s3)[C@H]12 test_result=1.4
molecule=COC(=O)[C@@]1(Cc2ccc(OC)cc2)[C@H]2c3cc(C(=O)N4CCCC4)n(CCc4ccc(OC)c(Br)c4)c3C[C@H]2CN1C(=O)c1ccccc1 test_result=-0.533
molecule=COCCOC(=O)N1C(=O)[C@@]2(c3cc(C#Cc4ccc(OC)cc4)ccc31)[C@H](C(=O)Nc1nc3ccccc3s1)[C@H]1C(=O)O[C@H](c3ccccc3)[C@H](c3ccccc3)N1[C@@H]2c1ccccc1OCCO test_result=1.32
molecule="CCCCC(O)C1C=CC2C(=O)NC(=O)C2N1Nc1ccc(Cl)cc1Cl (configuration not stated)" test_result=0.413
molecule=COC(=O)[C@@]1(Cc2ccccc2)[C@@H]2[C@@H](CC(=O)[C@H]2CC(=O)C(=O)N(C)C)CN1C(=O)c1ccccc1 test_result=-0.155
molecule=CN(C)CCCNC(=O)[C@@H]1c2ccccc2C(=O)N(C2Cc3ccccc3C2)[C@H]1c1ccc(CO)cc1 test_result=0.27
molecule=Cc1c(NC(=O)/C(C#N)=C/c2ccc(Cl)cc2)c(=O)n(-c2ccccc2)n1C test_result=0.114
molecule=CCC[C@@H]1[C@@H](Sc2ccccc2)[C@@H](C(=O)O)[C@H](c2ccc(C)cc2)N1S(=O)(=O)c1ccc(C)cc1 test_result=0.769
molecule="C=CCC(OC(C)=O)[C@@H]1[C@@H](N(Cc2cccc3ccccc23)C(=O)c2cccc3ccccc23)c2cc(OCCCO)ccc2N1C(=O)Cc1ccc2ccccc2c1 (some centres not stated)" test_result=0.832
molecule=COCCOC(=O)N1C(=O)[C@@]2(c3cc(C#CCC(C(=O)OC)C(=O)OC)ccc31)[C@H](C(N)=O)[C@H]1C(=O)O[C@H](c3ccccc3)[C@H](c3ccccc3)N1[C@@H]2c1ccc(OCCO)cc1 test_result=1.25
molecule="CCC(CC)C(O)C1C=CC2C(=O)N(C)C(=O)C2N1N1CCCCC1 (configuration not stated)" test_result=1.33
molecule=CN(C)C(=O)[C@]1(Cc2ccccc2CN=[N+]=[N-])N=C(c2ccc(OCCCO)cc2)O[C@@H]1c1ccccc1N=[N+]=[N-] test_result=1.18
molecule=COC(=O)[C@@]1(Cc2ccccc2)[C@H]2c3cc(C(=O)N4CCCC4)n(Cc4ccc(C(F)(F)F)nc4)c3C[C@H]2CN1C(=O)c1ccccc1 test_result=0.778
molecule=CN1C(=O)[C@]2(CCC(=O)OC(C)(C)C)N=C(c3ccc(OCCCO)cc3)O[C@@H]2c2ccccc21 test_result=1.44
molecule=CCc1cccc(NC(=O)O[C@H]2[C@H](OC(=O)Nc3ccc4c(c3)OCO4)[C@H](OC(=O)Nc3ccc4c(c3)OCO4)[C@@H](OC)O[C@@H]2CO)c1 test_result=0.987
molecule=O=C1N(CCS(=O)(=O)c2ccccc2)c2ccccc2[C@@H]2OC(c3ccc(OCCCO)cc3)=N[C@]12CCS(=O)(=O)c1ccccc1 test_result=1.38
molecule="CCCCN1CC=CC23O[C@@H]4C=CCOC(=O)[C@@H]4[C@H]2C(=O)N(C(CO)C(C)C)[C@@H]3C1=O (some centres not stated)" test_result=0.389
molecule=COCC(=C=CC[C@@H](O)c1ccc(OCCO)cc1)C[C@@H](O)COCc1ccccc1 test_result=1.34
molecule=C=CCNC(=O)[C@H]1[C@@H]2C(=O)O[C@@H](c3ccccc3)[C@@H](c3ccccc3)N2[C@@H](c2ccc(O)cc2)[C@]12C(=O)Nc1ccc(C#CC3=CCCCC3)cc12 test_result=0.886
molecule=CN(C)CCCC[C@@H]1NC(=O)[C@H]2C[C@@H](C(=O)O)[C@@H](c3cccc(OCCO)c3)N2C1=O test_result=1.4
molecule=C=C(/C(=C/C[C@H](OC(=O)c1ccncc1)c1ccccc1OCCO)c1cc(C(=O)OC)ccc1OC)C(C)C test_result=1.07

----------
- test_details: small-molecule microarray binders of probe aXIP, primary screen, biochemical, NeuroSMM set, 635/667 nm fluorescence (AID 1119);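 further: probe is the protein aXip251-270 applied at 1 µg/mL to compound-printed slides; binding of probe to printed compounds measured as 667 nm fluorescence plus signal to noise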
- details: higher = more signal, called active from +8 up or from −8 down
Recorded measurements of composite Z-score, one per entry
measure: composite Z-score

compound=CN(C)C(=O)[C@]1(Cc2ccccc2CN=[N+]=[N-])N=C(c2ccc(OCCCO)cc2)O[C@@H]1c1ccccc1N=[N+]=[N-] measure="composite Z-score" test_result=-0.118
compound=C=CCOC(=O)[C@H]1[C@@H]2C(=O)O[C@@H](c3ccccc3)[C@@H](c3ccccc3)N2[C@@H](c2ccc(OCCOC(=O)[C@@H]3C[C@@H]4C(=O)N[C@@H](CC(C)C)C(=O)N4[C@@H]3c3ccc(O)cc3)cc2)[C@]12C(=O)Nc1ccc(I)cc12 measure="composite Z-score" test_result=1.65
compound=O=C(NCC(F)(F)F)[C@@H]1c2ccccc2C(=O)N(CC23CC4CC(CC(C4)C2)C3)[C@H]1c1ccc(CO)cc1 measure="composite Z-score" test_result=0.251
compound=COCCCN1C(=O)[C@@]2(Cc3ccccc31)c1ccccc1C(=O)N(Cc1ccccc1OC)[C@H]2c1ccc(CO)cc1 measure="composite Z-score" test_result=0.449
compound=C=CC[C@@]12N=C(c3ccc(OCCCO)cc3)O[C@@H]1c1ccccc1N(Cc1ccccc1)C2=O measure="composite Z-score" test_result=0.407
compound=C=CCN1C(=O)[C@]2(O[C@H](CCO)[C@@H]([Si](C)(C)c3ccc(OC)cc3)[C@@H]2C)c2ccccc21 measure="composite Z-score" test_result=-0.291
compound="CC(C)C[C@H]1NC(=O)[C@H](Cc2ccccc2)NC(=O)[C@@]23C(=O)N[C@@H](Cc4ccccc4)C2[C@H](C)[C@@]2(C)O[C@H]2C3/C=C/C/C=C\\CNC1=O (some centres not stated)" measure="composite Z-score" test_result=0.63
compound="COC(=O)C1=CC(CCCO)=CC(C2CC2)N(Cc2cccc(OC(F)(F)F)c2)C=C1C(=O)OC (configuration not stated)" measure="composite Z-score" test_result=0.816
compound=COCCOC(=O)N1C(=O)[C@@]2(c3cc(C#CCC(C(=O)OC)C(=O)OC)ccc31)[C@H](c1ccc(OCCO)cc1)N1[C@H](c3ccccc3)[C@H](c3ccccc3)OC(=O)[C@H]1[C@@H]2C(=O)N1CCCCCCC1 measure="composite Z-score" test_result=2.32
compound=CC(C)C[C@@H]1NC(=O)[C@@H]2C[C@H](C(=O)NCCCC[N+](C)(C)C)[C@H](c3ccc(O)cc3)N2C1=O measure="composite Z-score" test_result=0.541
compound=COc1ccc([Si](C)(C)[C@H]2[C@H](CC(=O)N3Cc4ccccc4C[C@H]3CO)O[C@@]3(C(=O)N(Cc4cccc(N5C(=O)c6cccc7cccc5c67)c4)c4ccccc43)[C@@H]2C)cc1 measure="composite Z-score" test_result=0.285
compound=COCCOC(=O)N1C(=O)[C@@]2(c3ccccc31)[C@H](C(=O)N1CCCCCCC1)[C@H]1C(=O)O[C@H](c3ccccc3)[C@H](c3ccccc3)N1[C@@H]2c1ccc(O)cc1 measure="composite Z-score" test_result=4.39
compound=[N-]=[N+]=NCc1ccccc1C[C@]1(C(=O)N2CCOCC2)N=C(c2ccc(OCCCO)cc2)O[C@H]1c1ccccc1CN=[N+]=[N-] measure="composite Z-score" test_result=-0.161
compound=C=CC[C@]1(C(=O)NCCCOC)N=C(c2ccc(OCCCO)cc2)O[C@H]1c1ccccc1 measure="composite Z-score" test_result=-0.397
compound=CCC[C@@H]1C=C(C(=O)OCC)[C@H](c2ccccc2)N1S(=O)(=O)c1ccc(C)cc1 measure="composite Z-score" test_result=0.142
compound=CN(C)C(=O)[C@]1(Cc2ccccc2)N=C(c2ccc(OCCCO)cc2)O[C@@H]1c1ccccc1 measure="composite Z-score" test_result=0.572
compound="O=C1OCCC/C=C\\[C@H]2OC34C=CCN(Cc5ccccc5)C(=O)[C@H]3N(CCCCCO)C(=O)[C@@H]4C12 (some centres not stated)" measure="composite Z-score" test_result=-0.615
